Test system: HeLa Kyoto
Assay: solubility change mitosis vs G1/S (difference of NP-40 vs SDS log2 ratios) (log2 ratio difference); higher = more soluble in mitosis
Mark 1.0 for reported solubility change mitosis (log2) of -0.08 or greater; mark 0.0 for anything smaller.

Reference set (4 entries):
| substance | target_desc | discrete_label |
| --- | --- | --- |
| MGCFFSKRRKADKESRPENEEERPKQYSWDQREKVDPKDYMFSGLKDETVGRLPGTVAGQQFLIQDCENCNIYIFDHSATVTIDDCTNCIIFLGPVKGSVFFRNCRDCKCTLACQQFRVRDCRKLEVFLCCATQPIIESSSNIKFGCFQWYYPELAFQFKDAGLSIFNNTWSNIHDFTPVSGELNWSLLPEDAVVQDYVPIPTTEELKAVRVSTEANRSIVPISRGQRQKSSDESCLVVLFAGDYTIANARKLIDEMVGKGFFLVQTKEVSMKAEDAQRVFREKAPDFLPLLNKGPVIALEFNGDGAVEVCQLIVNEIFNGTKMFVSESKETASGDVDSFYNFADIQMGI [RP2] | HeLa Kyoto | 0.0 |
| MAAANPWDPASAPNGAGLVLGHFIASGMVNQEMLNMSKKTVSCFVNFTRLQQITNIQAEIYQKNLEIELLKLEKDTADVVHPFFLAQKCHTLQSMNNHLEAVLKEKRSLRQRLLKPMCQENLPIEAVYHRYMVHLLELAVTFIERLETHLETIRNIPHLAANLKKMNQALAKMDILVTETEELAENILKWRKQQNEVSSCIPKILAEESYLYKHDIIMPPLPFTSKVHVQTINAK [HAUS2] | HeLa Kyoto | 0.0 |
| RALGAPA1 | HeLa Kyoto | 0.0 |
| MAAPCLLRQGRAGALKTMLQEAQVFRGLASTVSLSAESGKSEKGQPQNSKKQSPPKKPAPVPAEPFDNTTYKNLQHHDYSTYTFLDLNLELSKFRMPQPSSGRESPRH [NDUFV3] | HeLa Kyoto | 1.0 |

Textbook exercise: given the entry MAAALFVLLGFALLGTHGASGAAGFVQAPLSQQRWVGGSVELHCEAVGSPVPEIQWWFEGQGPNDTCSQLWDGARLDRVHIHATYHQHAASTISIDTLVEEDTGTYECRASNDPDRNHLTRAPRVKWVRAQAVVLVLEPGTVFTTVEDLGSKILLTCSLNDSATEVTGHRWLKGGVVLKEDALPGQKTEFKVDSDDQWGEYSCVFLPEPMGTANIQLHGPPRVKAVKSSEHINEGETAMLVCKSESVPPVTDWAWYKITDSEDKALMNGSESRFFVSSSQGRSELHIENLNMEADPGQYRCNGTSSKGSDQAIITLRVRSHLAALWPFLGIVAEVLVLVTIIFIYEKRRKPEDVLDDDDAGSAPLKSSGQHQNDKGKNVRQRNSS [BSG] , state whether its solubility change mitosis (log2) is greater than or equal to -0.08.
1.0

###

System: HeLa Kyoto
Assay: thermal stability score vs G1/S (z-score of summed log2 fold changes over temperatures); higher = more thermally stable than in G1/S
Settings: cell cycle stage: mitosis
Short version: thermal stability score at least 0.2 is Yes, less is No.

Here's what some known entries look like.
| seq_string | discrete_label |
| --- | --- |
| MRLGPRTAALGLLLLCAAAAGAGKAEELHYPLGERRSDYDREALLGVQEDVDEYVKLGHEEQQKRLQAIIKKIDLDSDGFLTESELSSWIQMSFKHYAMQEAKQQFVEYDKNSDDTVTWDEYNIQMYDRVIDFDENTALDDAEEESFRKLHLKDKKRFEKANQDSGPGLSLEEFIAFEHPEEVDYMTEFVIQEALEEHDKNGDGFVSLEEFLGDYRWDPTANEDPEWILVEKDRFVNDYDKDNDGRLDPQELLPWVVPNNQGIAQEEALHLIDEMDLNGDKKLSEEEILENPDLFLTSEATDYGRQLHDDYFYHDEL [RCN2] | Yes |
| MVCGGFACSKNCLCALNLLYTLVSLLLIGIAAWGIGFGLISSLRVVGVVIAVGIFLFLIALVGLIGAVKHHQVLLFFYMIILLLVFIVQFSVSCACLALNQEQQGQLLEVGWNNTASARNDIQRNLNCCGFRSVNPNDTCLASCVKSDHSCSPCAPIIGEYAGEVLRFVGGIGLFFSFTEILGVWLTYRYRNQKDPRANPSAFL [TSPAN13] | No |
| MGRIFLDHIGGTRLFSCANCDTILTNRSELISTRFTGATGRAFLFNKVVNLQYSEVQDRVMLTGRHMVRDVSCKNCNSKLGWIYEFATEDSQRYKEGRVILERALVRESEGFEEHVPSDNS [YPEL5] | No |

Does the sequence MRFLAATFLLLALSTAAQAEPVQFKDCGSVDGVIKEVNVSPCPTQPCQLSKGQSYSVNVTFTSNIQSKSSKAVVHGILMGVPVPFPIPEPDGCKSGINCPIQKDKTYSYLNKLPVKSEYPSIKLVVEWQLQDDKNQSLFCWEIPVQIVSHL [NPC2] have recorded thermal stability score that is 0.2 or more?
No

Say whether MATRQRESSITSCCSTSSCDADDEGVRGTCEDASLCKRFAVSIGYWHDPYIQHFVRLSKERKAPEINRGYFARVHGVSQLIKAFLRKTECHCQIVNLGAGMDTTFWRLKDEDLLPSKYFEVDFPMIVTRKLHSIKCKPPLSSPILELHSEDTLQMDGHILDSKRYAVIGADLRDLSELEEKLKKCNMNTQLPTLLIAECVLVYMTPEQSANLLKWAANSFERAMFINYEQVNMGDRFGQIMIENLRRRQCDLAGVETCKSLESQKERLLSNGWETASAVDMMELYNRLPRAEVSRIESLEFLDEMELLEQLMRHYCLCWATKGGNELGLKEITY [LCMT1] shows thermal stability score of 0.2 or more.
Yes
